FYI, the data here is from ChEMBL document CHEMBL3244278.

# PROTOCOL_DESCRIPTION: Octanol-water partition coefficient, log P of the compound
# Format: physicochemical
READOUT_TYPE: logP

1. COC1CCN(S(=O)(=O)c2ccc(S(N)(=O)=O)c(Cl)c2)CC1 [UK-12130] | 0.62

---

# PROTOCOL_DESCRIPTION: Dissociation constant, pKa of the compound
# Type: physicochemical
READOUT_TYPE: pKa

1. NS(=O)(=O)c1nnc(NS(=O)(=O)c2ccccc2)s1 [BENZOLAMIDE] | 3.2
